- system_name: F508delCFTR cell surface expression in CFBE41o-F508delCFTR-HRP cells (Homo sapiens, UniProt P13569, DEL508-508)
- Construct: fused on or other part: Horseradish peroxidase (HRP) reporter inserted in the fourth exofacial (extracellular) loop of CFTR; expression is doxycycline-inducible
- Sequence (P13569 with tags, fused parts or gaps DEL508-508 limits assumed): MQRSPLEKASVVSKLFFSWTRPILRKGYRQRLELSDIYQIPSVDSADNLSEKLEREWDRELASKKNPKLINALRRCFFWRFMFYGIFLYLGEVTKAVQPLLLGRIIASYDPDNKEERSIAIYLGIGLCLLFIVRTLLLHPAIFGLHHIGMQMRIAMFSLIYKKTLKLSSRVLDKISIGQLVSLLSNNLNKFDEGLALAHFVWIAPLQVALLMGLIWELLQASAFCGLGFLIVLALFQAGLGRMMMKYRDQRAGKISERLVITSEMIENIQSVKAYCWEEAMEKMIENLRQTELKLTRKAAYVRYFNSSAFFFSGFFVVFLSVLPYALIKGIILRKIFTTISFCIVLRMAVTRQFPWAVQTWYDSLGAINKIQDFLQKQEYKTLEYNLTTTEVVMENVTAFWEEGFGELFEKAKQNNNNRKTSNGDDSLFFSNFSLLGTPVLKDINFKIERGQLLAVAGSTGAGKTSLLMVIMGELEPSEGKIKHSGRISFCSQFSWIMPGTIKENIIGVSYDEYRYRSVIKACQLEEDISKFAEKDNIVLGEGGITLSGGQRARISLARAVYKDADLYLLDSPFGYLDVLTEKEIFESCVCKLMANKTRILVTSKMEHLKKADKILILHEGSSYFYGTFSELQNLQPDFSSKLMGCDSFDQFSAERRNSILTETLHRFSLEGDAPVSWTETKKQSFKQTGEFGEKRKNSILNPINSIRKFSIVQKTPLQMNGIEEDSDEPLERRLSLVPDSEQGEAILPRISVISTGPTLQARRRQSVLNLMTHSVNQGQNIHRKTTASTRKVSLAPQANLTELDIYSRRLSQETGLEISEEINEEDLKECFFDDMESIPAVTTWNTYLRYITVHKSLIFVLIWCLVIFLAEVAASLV
- Sequence (P13569 919-1480 limits assumed, stated change not applied): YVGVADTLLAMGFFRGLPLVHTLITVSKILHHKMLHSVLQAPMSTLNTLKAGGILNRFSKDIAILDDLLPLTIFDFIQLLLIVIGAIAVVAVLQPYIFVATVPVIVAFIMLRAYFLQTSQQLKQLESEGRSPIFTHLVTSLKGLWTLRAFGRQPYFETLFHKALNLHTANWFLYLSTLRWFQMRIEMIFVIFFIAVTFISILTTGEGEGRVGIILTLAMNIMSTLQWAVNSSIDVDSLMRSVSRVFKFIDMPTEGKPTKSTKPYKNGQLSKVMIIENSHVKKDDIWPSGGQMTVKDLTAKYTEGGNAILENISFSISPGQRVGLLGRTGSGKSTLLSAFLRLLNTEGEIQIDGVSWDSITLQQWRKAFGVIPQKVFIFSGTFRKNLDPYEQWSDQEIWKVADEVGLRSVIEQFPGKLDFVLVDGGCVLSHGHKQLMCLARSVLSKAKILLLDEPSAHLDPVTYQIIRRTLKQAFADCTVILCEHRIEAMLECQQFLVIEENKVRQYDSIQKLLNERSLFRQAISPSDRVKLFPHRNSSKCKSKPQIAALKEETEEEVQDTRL
- assay: Cell Surface Expression-Horse Radish Peroxidase (CSE-HRP) Assay
- Assay type: cell-based
- applied_conditions: maximum at any tested concentration, normalized to on-plate positive control (3 μM)
- Protocol: Cell Surface Expression-Horse Radish Peroxidase (CSE-HRP) Assay: A cellular assay for measuring the F508delCFTR cell surface expression after correction with test compounds was developed in human lung derived epithelial cell line (CFBE41o-) (Veit G et al, (2012) Mol Biol Cell. 23(21): 4188-4202). […] The raw counts from the experiment are analyzed using Accelrys® Assay Explorer v3.3. […]
reported_property: Maximum % activity (%)

# input State the recorded Maximum % activity (%) for this entry: "COc1ccc2c(c1)O[C@@H](c1ccc(C(=O)N3CCCOCC3)cn1)C[C@H]2NC(=O)[C@@]1(C)COc2cc3c(cc21)OC(F)(F)O3"
# output 105

# input // repeat for COC(=O)C1CCN(c2cccc(NC(=O)C3(C)COc4cc5c(cc43)OC(F)(F)O5)n2)CC1 (centres unmarked) and report
# output 116

[I] COC(=O)c1ccc(-c2cccc(NC(=O)[C@@]3(C)COc4cc5c(cc43)OC(F)(F)O5)n2)cc1
[II] CC1(C(=O)Nc2nc(-c3ccc(C(=O)O)cc3)cs2)COc2cc3c(cc21)OC(F)(F)O3 (centres unmarked)
# input Between the two listed entries I and II , which has its Maximum % activity (%) at the higher number? Response format: the label of the selected entry.
# output I

[I] C[C@]1(C(=O)N[C@@H]2C[C@H](C3CCC(CN)(C(=O)O)CC3)Oc3cc(OC(F)(F)F)ccc32)COc2cc3c(cc21)OC(F)(F)O3 (some centres unmarked)
[II] CC(C)(CO)c1cc2cc(NC(=O)[C@]3(C)COc4cc5c(cc43)OC(F)(F)O5)c(F)cc2n1C[C@@H](O)CO
[III] COc1ccc2c(c1)O[C@@H](c1nnn[nH]1)C[C@H]2NC(=O)[C@@]1(C)COc2cc3c(cc21)OC(F)(F)O3
# input Write the entries in order, lowest recorded Maximum % activity (%) first. Would you mind listing the labels in the order asked for?
# output III, II, I

[P] Cc1ccc(NC(=O)[C@@]2(C)COc3cc4c(cc32)OC(F)(F)O4)nc1-c1cccc(C(O)CO)c1 (some centres unmarked)
[Q] CC1(C(=O)Nc2cccc(C(=O)NC[C@@H](O)CO)n2)COc2cc3c(cc21)OC(F)(F)O3 (some centres unmarked)
[R] C[C@]1(C(=O)Nc2cc(-c3ccccc3)cn(C[C@@H](O)CO)c2=O)COc2cc3c(cc21)OC(F)(F)O3
[S] Cc1c(C(=O)O)ncn1-c1ccc(C(F)(F)F)cc1NC(=O)C1(C)COc2cc3c(cc21)OC(F)(F)O3 (centres unmarked)
[T] C[C@]1(C(=O)Nc2cnc(N3CCC(C(=O)O)C3)cn2)COc2cc3c(cc21)OC(F)(F)O3 (some centres unmarked)
# input Hey, quick one: sort these by Maximum % activity (%), low to high? Submit the labels in the order that the ranking request calls for.
# output Q, T, S, R, P

====

- system_name: F508delCFTR cell surface expression in CFBE41o-F508delCFTR-HRP cells (Homo sapiens, UniProt P13569, DEL508-508)
- Construct: fused on or other part: Horseradish peroxidase (HRP) reporter inserted in the fourth exofacial (extracellular) loop of CFTR; expression is doxycycline-inducible
- assay: Cell Surface Expression-Horse Radish Peroxidase (CSE-HRP) Assay
- Type: cell-based
- applied_conditions: maximum at any tested concentration, normalized to on-plate positive control (3 μM)
- Description: Cell Surface Expression-Horse Radish Peroxidase (CSE-HRP) Assay: A cellular assay for measuring the F508delCFTR cell surface expression after correction with test compounds was developed in human lung derived epithelial cell line (CFBE41o-) (Veit G et al, (2012) Mol Biol Cell. 23(21): 4188-4202). […] The raw counts from the experiment are analyzed using Accelrys® Assay Explorer v3.3. […]
reported_property: Maximum % activity (%)

# input Using the record for COCC(CO)NC(=O)c1ccc([C@H]2C[C@@H](NC(=O)[C@@]3(C)COc4cc5c(cc43)OC(F)(F)O5)c3ccc(OC)cc3O2)nc1 (stereo partly drawn) [Example 246] , report its Maximum % activity (%).
# output 125

# input Entry to check: CC(C)(O)CNC(=O)[C@H]1CC[C@H]([C@H]2C[C@@H](NC(=O)[C@@]3(C)COc4cc5c(cc43)OC(F)(F)O5)c3ccc(OC(F)(F)F)cc3O2)CC1 [Example 267]
# output 166

# input Cool, now CC(C)(C)c1cc2cc(NC(=O)[C@@]3(C)COc4cc5c(cc43)OC(F)(F)O5)c(F)cc2n1C[C@@H](O)CO [Example 133]
# output 132

# input Follow-up entry: C[C@]1(C(=O)Nc2cccc(N3CCC(S(C)(=O)=O)C3)n2)COc2cc3c(cc21)OC(F)(F)O3 (stereo partly drawn) [Example 109]
# output 89

# input Can you check C[C@]1(C(=O)Nc2cccc(N3CCC(CO)(CCl)C3)n2)COc2cc3c(cc21)OC(F)(F)O3 (stereo partly drawn) [Example 110] next?
# output 120

# input Note, next up: CCOC(=O)[C@H]1CC[C@@H]([C@H]2C[C@@H](NC(=O)[C@@]3(C)COc4cc5c(cc43)OC(F)(F)O5)c3ccc(OC(F)(F)F)cc3O2)CC1 [Example 157]
# output 117

====

- system_name: F508delCFTR cell surface expression in CFBE41o-F508delCFTR-HRP cells (Homo sapiens, UniProt P13569, DEL508-508)
- Construct: fused on or other part: Horseradish peroxidase (HRP) reporter inserted in the fourth exofacial (extracellular) loop of CFTR; expression is doxycycline-inducible
- assay: Cell Surface Expression-Horse Radish Peroxidase (CSE-HRP) Assay
- applied_conditions: CFBE41o-F508delCFTR-HRP cells, 18-24 hours at 33° C., 8-point curve, highest concentration 20 μM
pEC50: −log10 of the molar value.
reported_property: pEC50

Below, 5 compounds whose answers are already recorded.
# input Sample "COc1ccc2c(c1)O[C@@H](c1ccc(C(C)=O)cn1)C[C@H]2NC(=O)[C@@]1(C)COc2cc3c(cc21)OC(F)(F)O3" — what was its pEC50?
# output 7.70

# input Proceed to "C[C@]1(C(=O)N[C@@H]2C[C@H]([C@H]3CC[C@H](C(=O)N4CCC(F)(F)CC4)CC3)Oc3cc(OC(F)(F)F)ccc32)COc2cc3c(cc21)OC(F)(F)O3"
# output 6.74

# input What would you report for "C[C@]1(C(=O)N[C@@H]2C[C@H](c3ccc(C(=O)O)cc3)Oc3ccccc32)CCc2cc3c(cc21)OC(F)(F)O3" ?
# output 5.56

# input Can you check "Cc1ccc(NC(=O)[C@@]2(C)COc3cc4c(cc32)OC(F)(F)O4)nc1-c1cccc(C(=O)OC(C)(C)C)c1" next?
# output 5.49

# input What do you get for "COC(=O)c1ccc([C@H]2C[C@@H](NC(=O)[C@]3(C)COc4cc5c(cc43)OC(F)(F)O5)c3ccc(OC)cc3O2)cc1" ?
# output 5.06

[a] COc1ccc2c(c1)O[C@@H](c1ccc(C(=O)O)cc1)C[C@H]2NC(=O)C1(C)COc2c1ccc1c2OC(F)(F)O1 (stereo partly shown)
[b] COc1ccc2c(c1)O[C@@H](c1ccc(C(=O)NC(CO)c3ccccc3)cn1)C[C@H]2NC(=O)[C@@]1(C)COc2cc3c(cc21)OC(F)(F)O3 (stereo partly shown)
# input When their pEC50 values are compared, which is larger, a or b ? Return value: the label identifying the chosen record.
# output b
(b: 7.52, a: 5.90)

[1] COc1ccc2c(c1)O[C@@H](c1nnnn1Cc1ccccc1)C[C@H]2NC(=O)[C@@]1(C)COc2cc3c(cc21)OC(F)(F)O3
[2] C[C@]1(C(=O)Nc2cccc(N3CCC(S(C)(=O)=O)C3)n2)COc2cc3c(cc21)OC(F)(F)O3 (stereo partly shown)
# input Min pEC50? 1 | 2 Could you answer with the label of the item you picked?
# output 1
(1: 5.75, 2: 6.24)

====

- system_name: F508delCFTR cell surface expression in CFBE41o-F508delCFTR-HRP cells (Homo sapiens, UniProt P13569, DEL508-508)
- Construct: fused on or other part: Horseradish peroxidase (HRP) reporter inserted in the fourth exofacial (extracellular) loop of CFTR; expression is doxycycline-inducible
- assay: Cell Surface Expression-Horse Radish Peroxidase (CSE-HRP) Assay
- Type: cell-based
- applied_conditions: maximum at any tested concentration, normalized to on-plate positive control (3 μM)
reported_property: Maximum % activity (%)

Solved cases (5 shown):
# input Query (compound): "C[C@]1(C(=O)N[C@@H]2C[C@H](c3ccc(CO)cn3)Oc3cc(OC(F)(F)F)ccc32)COc2cc3c(cc21)OC(F)(F)O3" ; field requested: Maximum % activity (%)
# output 127

# input What do you get for CC1(C)OC[C@@H](Cn2nc(-c3ccccc3)cc(NC(=O)C3(C)COc4cc5c(cc43)OC(F)(F)O5)c2=O)O1 (stereo partly shown) ?
# output 70

# input Cool, now "Cc1ccc(NC(=O)[C@@]2(C)COc3cc4c(cc32)OC(F)(F)O4)nc1Cl"
# output 116

# input Cool, now CC(CO)NC(=O)[C@H]1CC[C@H]([C@H]2C[C@@H](NC(=O)[C@@]3(C)COc4cc5c(cc43)OC(F)(F)O5)c3ccc(OC(F)(F)F)cc3O2)CC1 (stereo partly shown)
# output 163

# input Note, next up: "COc1ccc2c(c1)O[C@H](c1ccc(=O)[nH]n1)C[C@H]2NC(=O)[C@@]1(C)COc2cc3c(cc21)OC(F)(F)O3"
# output 132

[A] CC1(C(=O)Nc2cccc(-c3ccc(C(=O)O)cc3)c2)COc2cc3c(cc21)OC(F)(F)O3 (stereo not shown)
[B] C[C@]1(C(=O)Nc2cc3cc(C4(CO)CCOCC4)n(C[C@@H](O)CO)c3cc2F)COc2cc3c(cc21)OC(F)(F)O3
# input Lower Maximum % activity (%): A or B ? To answer, give the label that identifies your chosen option.
# output B

// data source = patent US9840513B2
